Test system: Primary human T-cells
Assay: Primary Human T-Cell Proliferation Assay Stimulated with IL-2 (CellTiter-Glo)
Assay type: cell-based
Conditions: primary human T-cell proliferation stimulated with IL-2; read-out: IC50, Example 42
Let's look at some molecules and their measured IC50.

- molecule: "Cc1cc(COc2ccc(Nc3nc(Nc4ccc(S(N)(=O)=O)cc4)ncc3F)cc2C)no1"
  unit_annotation: "nM"
  IC50: 5260
- molecule: "CNS(=O)(=O)c1cc(Nc2ncc(F)c(Nc3ccc(Oc4ccncc4)cc3)n2)ccc1C"
  unit_annotation: "nM"
  IC50: 3310
- molecule: "Cc1ccc(Nc2ncc(F)c(Nc3ccc(OCc4cccnc4)cc3)n2)cc1S(N)(=O)=O"
  unit_annotation: "nM"
  IC50: 143
- molecule: "Cc1noc(CCc2ccc(Nc3nc(Nc4ccc(F)c(S(N)(=O)=O)c4)ncc3F)cc2)n1"
  unit_annotation: "nM"
  IC50: 2020
- molecule: "Cc1cc(Nc2nc(Nc3ccc(C)c(S(N)(=O)=O)c3)ncc2F)ccc1NC(=O)CC#N"
  unit_annotation: "nM"
  IC50: 957
- molecule: "COc1cc(Nc2ncc(F)c(Nc3ccc(CC#N)cc3)n2)ccc1S(N)(=O)=O"
  unit_annotation: "nM"
  IC50: 1800
- molecule: "Cc1ccc(Nc2ncc(F)c(Nc3ccc(OC(C)(C)C#N)cc3)n2)cc1S(N)(=O)=O"
  unit_annotation: "nM"
  IC50: 728
- molecule: "CCN(CC)CCNS(=O)(=O)c1ccc(Nc2ncc(F)c(Nc3cccc(OCc4cccnc4)c3)n2)cc1"
  unit_annotation: "nM"
  IC50: 1080
- molecule: "Cc1cnc(Nc2cccc(S(N)(=O)=O)c2)nc1Nc1ccc(OCc2ccccn2)cc1"
  unit_annotation: "nM"
  IC50: 11.8
- molecule: "Cc1cc(Nc2nc(Nc3ccc(F)c(S(N)(=O)=O)c3)ncc2F)ccc1OC(C)C#N (racemic)"
  unit_annotation: "nM"
  IC50: 1030
- molecule: "N#CCOc1ccc(Nc2nc(Nc3cccc(S(N)(=O)=O)c3)ncc2F)cc1"
  unit_annotation: "nM"
  IC50: 43.2
- molecule: "Cc1nnc(COc2ccc(Nc3nc(Nc4ccc(F)c(S(N)(=O)=O)c4)ncc3F)cc2)o1"
  unit_annotation: "nM"
  IC50: 412
- molecule: "Cc1cc(Nc2nc(Nc3cccc(S(N)(=O)=O)c3)ncc2F)ccc1OC(C)C#N (racemic)"
  unit_annotation: "nM"
  IC50: 123
- molecule: "CNS(=O)(=O)c1cc(Nc2ncc(F)c(Nc3ccc(-c4ccccn4)c(OCF)c3)n2)ccc1C"
  unit_annotation: "nM"
  IC50: 907
- molecule: "CCN(CC)CCNS(=O)(=O)c1cccc(Nc2ncc(F)c(Nc3ccc(OCc4csc(C)n4)cc3)n2)c1"
  unit_annotation: "nM"
  IC50: 362

----------
Test system: Primary human T-cells
Assay: Primary Human T-Cell Proliferation Assay Stimulated with IL-2 (CellTiter-Glo)
Type: cell-based
Conditions: Homo sapiens, T-cell, primary human T-cells stimulated with IL-2, proliferation; read-out: IC50, Example 42
pIC50: −log10 of the molar value.
Let's look at some compounds and their measured pIC50.

- compound: "Cc1ccc(Nc2ncc(F)c(Nc3ccc4c(CC#N)c[nH]c4c3)n2)cc1S(N)(=O)=O"
  pIC50: 6.67
- compound: "NS(=O)(=O)c1cc(Nc2ncc(F)c(Nc3ccc(O)cc3)n2)ccc1F"
  pIC50: 7.13
- compound: "COc1ccc(Nc2nc(Nc3cccc(S(N)(=O)=O)c3)ncc2F)cn1"
  pIC50: 5.70
- compound: "COc1ccc(Nc2nc(Nc3ccc(OC)c(S(N)(=O)=O)c3)ncc2F)cc1Cl"
  pIC50: 6.44
- compound: "CC#CCOc1ccc(Nc2nc(Nc3ccc(C)c(S(N)(=O)=O)c3)ncc2F)cc1"
  pIC50: 6.73
- compound: "Cc1ccc(Nc2ncc(F)c(Nc3ccc4[nH]cc(CC#N)c4c3)n2)cc1S(N)(=O)=O"
  pIC50: 6.18
- compound: "CN1CCN(C(=O)c2ccc(Nc3nc(Nc4cccc(S(N)(=O)=O)c4)ncc3F)cc2)CC1"
  pIC50: 5.00
- compound: "Cc1ccc(Nc2ncc(C)c(Nc3ccc4c(c3)N(C)C(=O)CS4)n2)cc1S(N)(=O)=O"
  pIC50: 7.74
- compound: "Cc1ccc(Nc2ncc(F)c(Nc3ccc(C(C)(C)C)cc3)n2)cc1S(N)(=O)=O"
  pIC50: 5.35
- compound: "NS(=O)(=O)c1cccc(Nc2ncc(F)c(Nc3ccc(Cc4ccncc4)cc3)n2)c1"
  pIC50: 6.86
- compound: "Cc1ccc2cc(Nc3nc(Nc4ccc(C)c(S(N)(=O)=O)c4)ncc3F)ccc2n1"
  pIC50: 6.25
- compound: "C#CCNS(=O)(=O)c1ccc(Nc2nc(Nc3ccc(S(N)(=O)=O)cc3)ncc2F)cc1"
  pIC50: 4.36
- compound: "Cc1cnc(Nc2ccc(S(N)(=O)=O)cc2)nc1Nc1ccc2c(c1)N(C)C(=O)CS2"
  pIC50: 7.65
- compound: "NS(=O)(=O)c1ccc(Nc2ncc(F)c(Nc3ccc(CCCF)cc3)n2)cc1"
  pIC50: 5.79
- compound: "NS(=O)(=O)c1cccc(Nc2ncc(F)c(Nc3cnc4ccccc4c3)n2)c1"
  pIC50: 5.54
- compound: "COc1ccc(Nc2nc(Nc3ccc(Cl)c(S(N)(=O)=O)c3)ncc2F)cc1Cl"
  pIC50: 5.45
- compound: "COc1ccc(Nc2nc(Nc3cccc(S(N)(=O)=O)c3)ncc2Br)cc1Cl"
  pIC50: 7.54
- compound: "COc1ccc(CN2C(=O)C(C)Sc3ccc(Nc4nc(Nc5ccc(S(N)(=O)=O)cc5)ncc4F)cc32)cc1 (racemic)"
  pIC50: 5.08
- compound: "N#Cc1cc(Nc2nc(Nc3cccc(S(N)(=O)=O)c3)ncc2F)ccc1F"
  pIC50: 6.01
- compound: "NC(=O)c1cc2cc(Nc3nc(Nc4cccc(S(N)(=O)=O)c4)ncc3F)ccc2o1"
  pIC50: 6.22
- compound: "NS(=O)(=O)c1ccc(Nc2ncc(F)c(Nc3ccc(CCCCF)cc3)n2)cc1"
  pIC50: 5.91
- compound: "N#CCN1C(=O)COc2ccc(Nc3nc(Nc4cccc(S(N)(=O)=O)c4)ncc3F)cc21"
  pIC50: 6.90
- compound: "COc1cc(Nc2nc(Nc3ccc(C)c(S(N)(=O)=O)c3)ncc2F)ccc1Cl"
  pIC50: 6.14
- compound: "C#CCn1ccc2cc(Nc3nc(Nc4cccc(S(N)(=O)=O)c4)ncc3F)ccc21"
  pIC50: 6.55
- compound: "C#CCOc1ccc(Nc2nc(Nc3ccc(C)c(S(N)(=O)=O)c3)ncc2F)cc1Cl"
  pIC50: 6.47
- compound: "COC(=O)c1ccc(Nc2nc(Nc3ccc(S(N)(=O)=O)cc3)ncc2F)s1"
  pIC50: 4.21
- compound: "NS(=O)(=O)c1cc(Nc2ncc(F)c(Nc3ccc(OC(F)(F)F)cc3)n2)ccc1Cl"
  pIC50: 5.21
- compound: "C#CCOc1ccc(Nc2nc(Nc3ccc(C(C)C)c(S(N)(=O)=O)c3)ncc2F)cc1"
  pIC50: 6.44
- compound: "CNC(=O)OCc1cccc(Nc2nc(Nc3ccc(C)c(S(N)(=O)=O)c3)ncc2F)c1"
  pIC50: 5.90
- compound: "COC(=O)c1ccc(Nc2nc(Nc3cccc(S(N)(=O)=O)c3)ncc2F)s1"
  pIC50: 5.62
- compound: "COc1ccc(Nc2nc(Nc3cccc(S(N)(=O)=O)c3)ncc2F)cc1Cl"
  pIC50: 7.13
- compound: "N#CCc1c[nH]c2cc(Nc3nc(Nc4cccc(S(N)(=O)=O)c4)ncc3F)ccc12"
  pIC50: 6.93
- compound: "Cc1cc(Nc2ncc(F)c(Nc3ccc(OC(F)(F)F)c(Cl)c3)n2)cc(S(N)(=O)=O)c1F"
  pIC50: 5.41
- compound: "Cc1ccc(Nc2ncc(F)c(Nc3ccc(C(=O)N4CCN(C)CC4)cc3)n2)cc1S(N)(=O)=O"
  pIC50: 5.12
- compound: "Cc1ccc(Nc2ncc(F)c(Nc3ccc(CCCF)cc3)n2)cc1S(N)(=O)=O"
  pIC50: 6.29
